Conditions: [M+Na]+; instrument: DT; stepped-field
Classification field: condition met = collision cross section (N2) at or over 200 Å²; condition not met = collision cross section (N2) under 200 Å².

Here's what some known entries look like.
INSERT INTO assay_data (molecule, class_name) VALUES
  ('Nc1ncnc2c1ncn2[C@H]1C[C@H](O)[C@@H](CO)O1', 'condition not met'),
  ('CCCCCCCCCCCCCCCCCC(=O)OC[C@@H](O)COP(=O)([O-])OCC[N+](C)(C)C', 'condition met'),
  ('OC[C@H]1O[C@@H](O[C@H]2[C@H](O)[C@H](O)[C@H](O[C@H]3[C@H](O)[C@H](O)[C@H](O[C@H]4[C@H](O)[C@H](O)[C@H](O[C@H]5[C@H](O)[C@H](O)[C@H](O[C@H]6[C@H](O)[C@H](O)C(O)O[C@@H]6CO)O[C@@H]5CO)O[C@@H]4CO)O[C@@H]3CO)O[C@@H]2CO)[C@@H](O)[C@@H](O)[C@@H]1O (stereo partly drawn)', 'condition met'),
  ('O=C(O)[C@H](O)[C@@H](O)[C@H](O)[C@H](O)CO', 'condition not met'),
  ('O=C(O)C1(O)C[C@@H](O)C(O)[C@H](O)C1 (stereo partly drawn)', 'condition not met'),
  ('OC[C@H]1O[C@@H](O[C@H]2[C@H](O)[C@@H](O)[C@H](O[C@H]3[C@H](O)[C@@H](O)[C@H](O[C@H]4[C@H](O)[C@@H](O)[C@H](O[C@H]5[C@H](O)[C@@H](O)C(O)O[C@@H]5CO)O[C@@H]4CO)O[C@@H]3CO)O[C@@H]2CO)[C@H](O)[C@@H](O)[C@@H]1O (stereo partly drawn)', 'condition met'),
  ('O=C(CO)[C@@H](O)[C@H](O)[C@H](O)[C@H](O)CO', 'condition not met'),
  ('CS(=N)(=O)CC[C@H](N)C(=O)O (stereo partly drawn)', 'condition not met'),
  ('OC[C@H]1O[C@@H](O[C@H]2[C@H](O)[C@@H](O)[C@H](O[C@H]3[C@H](O)[C@@H](O)[C@H](O[C@H]4[C@H](O)[C@@H](O)[C@H](O[C@H]5[C@H](O)[C@@H](O)[C@H](O[C@H]6[C@H](O)[C@@H](O)[C@H](O)O[C@@H]6CO)O[C@@H]5CO)O[C@@H]4CO)O[C@@H]3CO)O[C@@H]2CO)[C@H](O)[C@@H](O)[C@@H]1O', 'condition met'),
  ('NC(=O)NC1NC(=O)NC1=O (stereo not drawn)', 'condition not met');

Textbook exercise: given the entry C=C1C2CCC(C2)C1(C)C (stereo not drawn) , state whether its collision cross section (N2) is greater than or equal to 200 Å². condition not met

Ok, now O=C[C@H](O[C@@H]1O[C@H](CO)[C@@H](O)[C@H](O)[C@H]1O)[C@@H](O)[C@H](O)[C@H](O)CO condition not met
